The measured values listed here are drawn from paper PMC11237774.

biological target: Pb-M17 (Plasmodium berghei, UniProt A0A509APA2); test: Recombinant aminopeptidase fluorescence assay (H-Leu-NHMec); settings: Pb M17, Morrison equation; read-out: Ki^(app) ± SEM
Sequence (A0A509APA2 entry or part of it): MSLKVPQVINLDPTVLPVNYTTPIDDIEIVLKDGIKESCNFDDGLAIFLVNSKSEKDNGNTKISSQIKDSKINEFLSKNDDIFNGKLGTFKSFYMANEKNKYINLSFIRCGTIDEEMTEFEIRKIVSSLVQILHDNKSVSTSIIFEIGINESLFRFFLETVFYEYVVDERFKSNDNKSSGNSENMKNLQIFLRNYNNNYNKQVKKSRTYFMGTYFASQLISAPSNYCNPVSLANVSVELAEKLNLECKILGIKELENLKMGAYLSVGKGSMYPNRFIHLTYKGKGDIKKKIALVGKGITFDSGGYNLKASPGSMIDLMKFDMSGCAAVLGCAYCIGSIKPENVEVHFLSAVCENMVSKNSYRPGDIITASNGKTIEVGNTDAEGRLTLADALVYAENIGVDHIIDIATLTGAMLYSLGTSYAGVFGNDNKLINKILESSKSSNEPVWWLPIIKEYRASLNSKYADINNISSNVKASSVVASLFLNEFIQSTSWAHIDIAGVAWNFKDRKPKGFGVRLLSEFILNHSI
ASSAY METRIC: pKi
# pKi is unitless: minus log10 of the molar concentration; print number only

Input: Which pKi is reported for this compound? CC(C)(C)CC(=O)NC(C(=O)NO)c1ccc(-c2cc(F)c(F)c(F)c2)cc1 (stereo not shown)
Output: 6.89

====

assay: Plasma stability; assay type: in vitro ADME; settings: human plasma, 37°C
ASSAY METRIC: remaining at 4 h (%)
Express your answer in %, writing the number without its unit.

Input: Which remaining at 4 h is reported for this compound? CC(C)(C)CC(=O)NC(C(=O)NO)c1ccc(-c2cc(F)c(F)c(F)c2)cc1 (stereo not shown) [MMV1557817]
Output: 97

====

experiment: In vivo exposure after single oral dosing; conditions: male, Swiss outbred, mouse, plasma, 50 mg/kg
ASSAY METRIC: AUC(0-t) (µM·h)
Express your answer in µM·h, writing the number without its unit.

Input: Which AUC(0-t) is reported for this compound? CC(C)(C)CC(=O)NC(C(=O)NO)c1ccc(-c2cc(F)c(F)c(F)c2)cc1 (stereo not shown) [MMV1557817]
Output: 14.9

====

tested on: Cam3.1 (MRA1240); assay: microbe, parasite or virus in culture; assay type: cell-based, P. falciparum; conditions: Plasmodium falciparum, read-out: EC50 nM (mean)
ASSAY METRIC: EC50
Entry format: amount then unit.

Input: Which EC50 is reported for this compound? CC(C)(C)CC(=O)NC(C(=O)NO)c1ccc(-c2cc(F)c(F)c(F)c2)cc1 (stereo not shown)
Output: 23 nM

====

assay: Plasma protein binding by ultracentrifugation; format: in vitro ADME, human; conditions: Sprague-Dawley (rat plasma), human, plasma (10% plasma diluted with PBS), pH 7.4; summary in text over the plasma species tested; read-out: bound to plasma proteins
ASSAY METRIC: fraction unbound at 4.2 h

Input: Which fraction unbound at 4.2 h is reported for this molecule? CC(C)(C)CC(=O)NC(C(=O)NO)c1ccc(-c2cc(F)c(F)c(F)c2)cc1 (stereo not shown) [MMV1557817]
Output: 0.01 to 0.02

====

system: P. vivax clinical isolates; experiment: Ex vivo drug susceptibility assay (schizont maturation) on clinical isolates; format: cell-based; details: Plasmodium vivax, read-out: P. vivax median EC50 (range), ex vivo clinical isolates, n = 6
ASSAY METRIC: EC50 (nM)
Express your answer in nM, writing the number without its unit.

Input: Which EC50 is reported for this compound? CCN(CC)CCCC(C)Nc1ccnc2cc(Cl)ccc12 (stereo not shown)
Output: 36

====

target: Pb-M1 (Plasmodium berghei); test: Recombinant aminopeptidase fluorescence assay (H-Leu-NHMec)
Sequence (A0A509ATR4 entry or part of it): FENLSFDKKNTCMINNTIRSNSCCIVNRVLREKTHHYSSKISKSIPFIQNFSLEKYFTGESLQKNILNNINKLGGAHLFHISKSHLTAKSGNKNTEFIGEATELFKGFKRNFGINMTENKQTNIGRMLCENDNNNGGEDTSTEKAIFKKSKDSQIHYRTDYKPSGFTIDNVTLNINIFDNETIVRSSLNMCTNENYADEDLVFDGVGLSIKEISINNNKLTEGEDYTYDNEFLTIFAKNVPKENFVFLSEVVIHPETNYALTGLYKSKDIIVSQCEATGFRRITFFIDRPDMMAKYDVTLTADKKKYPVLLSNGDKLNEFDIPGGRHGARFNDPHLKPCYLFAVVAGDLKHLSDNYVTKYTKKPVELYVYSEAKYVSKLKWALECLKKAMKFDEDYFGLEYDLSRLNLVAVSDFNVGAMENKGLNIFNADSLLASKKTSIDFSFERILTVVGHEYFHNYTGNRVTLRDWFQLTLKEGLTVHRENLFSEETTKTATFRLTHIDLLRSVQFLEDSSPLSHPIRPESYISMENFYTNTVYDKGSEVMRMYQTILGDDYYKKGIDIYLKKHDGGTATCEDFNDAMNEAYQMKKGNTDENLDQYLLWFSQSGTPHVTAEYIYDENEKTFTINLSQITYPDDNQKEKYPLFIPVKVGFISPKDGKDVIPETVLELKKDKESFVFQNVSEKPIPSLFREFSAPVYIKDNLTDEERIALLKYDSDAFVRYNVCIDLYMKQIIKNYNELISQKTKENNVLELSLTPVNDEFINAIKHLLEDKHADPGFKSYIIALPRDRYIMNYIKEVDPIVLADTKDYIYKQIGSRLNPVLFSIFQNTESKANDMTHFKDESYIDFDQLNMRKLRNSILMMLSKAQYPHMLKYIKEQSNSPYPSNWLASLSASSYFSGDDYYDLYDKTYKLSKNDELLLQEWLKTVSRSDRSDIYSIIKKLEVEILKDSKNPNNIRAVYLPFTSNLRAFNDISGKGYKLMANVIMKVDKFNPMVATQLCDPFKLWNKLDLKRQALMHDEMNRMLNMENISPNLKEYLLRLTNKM
ASSAY METRIC: pKi
# pKi is unitless: minus log10 of the molar concentration; print number only

Input: Which pKi is reported for this molecule? CC(C)(C)CC(=O)NC(C(=O)NO)c1ccc(-c2cc(F)c(F)c(F)c2)cc1 (stereo not shown)
Output: 8.70

====

# Lookup of reported log10 of IC50 keyed by entry
System: PfNF54-s16-GFP early (I–III) stage gametocytes
Test: Image-based gametocyte viability assay
Assay type: cell-based, P. falciparum
Details: Plasmodium falciparum; stages I–III, 72 h; read-out: IC50 Early-stage Gametocytes (mean ± SD)
Procedure: Viability assays were performed as described previously ([32], [33]) against PfNF54-s16-GFP early(I–III), late (IV–V), and mature (V) stage gametocytes. Gametocytes were assessed at the appropriate time points following gametogenesis; early stage (day 2), late stage (day 8), and mature stage (day 12). […] An Acapella-based script using the CMH2XRos fluorescent signal and the GFP-designated object quantifying viable stage-dependent parasite morphology identified gametocytes. […]
All values: base-10 log of IC50 in nM.

Known log10 of IC50 results, listed for orientation:
[[record]]
compound = "CN(C)c1ccc2nc3ccc(=[N+](C)C)cc-3sc2c1"
assay_metric = "log10 of IC50"
quantitative_readout = 2.04

[[record]]
compound = "COc1ccc(C[C@H](N)C(=O)N[C@H]2[C@@H](O)[C@H](n3cnc4c(N(C)C)ncnc43)O[C@@H]2CO)cc1"
assay_metric = "log10 of IC50"
quantitative_readout = 2.21

[[record]]
compound = "COc1ccc2nc3cc(Cl)ccc3c(Nc3cc(CN4CCCC4)c(O)c(CN4CCCC4)c3)c2n1"
assay_metric = "log10 of IC50"
quantitative_readout = 1.83

[[record]]
compound = "CC(C)(C)CC(=O)NC(C(=O)NO)c1ccc(-c2cc(F)c(F)c(F)c2)cc1 (stereo not drawn)"
assay_metric = "log10 of IC50"
quantitative_readout = 2.00


Input: Which log10 of IC50 is reported for this compound? C[C@H]1[C@@H](O)O[C@@H]2O[C@@]3(C)CC[C@H]4[C@H](C)CC[C@@H]1[C@@]24OO3 [DHA, dihydroartemisinin]
Output: 1.20

Input: Which log10 of IC50 is reported for this compound? C[C@H]1[C@H](OC(=O)CCC(=O)O)O[C@@H]2O[C@@]3(C)CC[C@H]4[C@H](C)CC[C@@H]1[C@@]24OO3 [artesunate]
Output: 1.20
